- TARGET_UNDER_TEST: human sodium-dependent glucose transporter 1 (SGLT1, SLC5A1) (Homo sapiens, UniProt P13866)
- Construct: Bases 11 to 2005 correspond to the complete coding region of human SGLT1
- Sequence (P13866 1-664): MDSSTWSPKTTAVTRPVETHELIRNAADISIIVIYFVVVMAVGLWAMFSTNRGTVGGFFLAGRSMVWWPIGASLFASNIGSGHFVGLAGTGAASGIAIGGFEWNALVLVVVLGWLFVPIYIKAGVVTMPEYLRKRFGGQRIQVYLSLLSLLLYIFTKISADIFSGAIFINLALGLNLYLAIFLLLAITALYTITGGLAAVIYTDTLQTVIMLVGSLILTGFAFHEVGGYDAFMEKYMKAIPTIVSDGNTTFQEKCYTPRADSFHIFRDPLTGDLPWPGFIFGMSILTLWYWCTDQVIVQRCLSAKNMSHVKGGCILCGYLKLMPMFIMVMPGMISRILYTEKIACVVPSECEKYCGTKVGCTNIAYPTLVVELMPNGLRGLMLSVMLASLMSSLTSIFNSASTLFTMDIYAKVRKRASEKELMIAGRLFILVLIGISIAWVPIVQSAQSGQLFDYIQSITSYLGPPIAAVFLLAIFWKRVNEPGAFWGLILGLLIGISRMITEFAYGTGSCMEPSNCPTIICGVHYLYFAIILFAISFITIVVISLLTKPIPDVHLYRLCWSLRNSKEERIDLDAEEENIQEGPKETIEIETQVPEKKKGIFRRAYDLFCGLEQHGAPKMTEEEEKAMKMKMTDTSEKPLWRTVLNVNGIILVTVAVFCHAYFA
- PROTOCOL_DETAILS: Inhibition of methyl α-D-glucopyranoside (α-MDG) uptake in CHO-TRex-hSGLT1 cells
- MEASUREMENT_SETUP: in vitro uptake of methyl α-D-glucopyranoside, 50 μM α-MDG, 30 min at room temperature
pIC50: −log10 of the molar value.
Reported pIC50 is given for each of the following compounds.
RECORDED_METRIC: pIC50

compound="CC(C)c1[nH]nc(OC2OC(CO)C(F)C(O)C2O)c1Cc1ccc(CCCC(=O)NC(CO)(CO)CO)cc1 (stereo not shown)" recorded_metric=pIC50 reported_result=7.33
compound="CC(C)c1[nH]nc(OC2OC(CO)C(F)C(O)C2O)c1Cc1ccc(/C=C/CC(=O)NCCC(N)=O)cc1 (stereo not shown)" recorded_metric=pIC50 reported_result=7.37
compound=CC(C)c1[nH]nc(O[C@@H]2O[C@H](CO)[C@@H](F)[C@H](O)[C@H]2O)c1Cc1ccc(C(=O)NCC(N)=O)cc1 recorded_metric=pIC50 reported_result=7.15
compound="CC(C)c1[nH]nc(OC2OC(CO)C(F)C(O)C2O)c1Cc1ccc(CCCC(=O)N[C@@H](CO)C(N)=O)cc1 (stereo partly shown)" recorded_metric=pIC50 reported_result=7.09

* * *

Reported pIC50 values for the following compounds.
- TARGET_UNDER_TEST: human sodium-dependent glucose transporter 1 (SGLT1, SLC5A1) (Homo sapiens)
- Construct: Bases 11 to 2005 correspond to the complete coding region of human SGLT1
- PROTOCOL_DETAILS: Inhibition of methyl α-D-glucopyranoside (α-MDG) uptake in CHO-TRex-hSGLT1 cells
- MEASUREMENT_SETUP: in vitro uptake of methyl α-D-glucopyranoside, 50 μM α-MDG, 30 min at room temperature
pIC50: −log10 of the molar value.
RECORDED_METRIC: pIC50

compound="CC(C)c1[nH]nc(OC2OC(CO)C(F)C(O)C2O)c1Cc1ccc(CCCNC(=O)N2CCN(C)CC2)cc1 (centres unmarked)" recorded_metric=pIC50 reported_result=7.37
compound="Cc1[nH]nc(OC2OC(CO)C(F)C(O)C2O)c1Cc1ccc(CCCC(=O)NCCC(N)=O)cc1 (centres unmarked)" recorded_metric=pIC50 reported_result=6.88
compound="CC(C)c1[nH]nc(OC2OC(CO)C(F)C(O)C2O)c1Cc1ccc(CCCC(=O)NCCCN)cc1 (centres unmarked)" recorded_metric=pIC50 reported_result=6.84
compound="CC(C)c1[nH]nc(OC2OC(CO)C(F)C(O)C2O)c1Cc1ccc(CCCC(=O)N2CCCC2)cc1 (centres unmarked)" recorded_metric=pIC50 reported_result=6.77
compound="CC(C)c1[nH]nc(OC2OC(CO)C(F)C(O)C2O)c1Cc1ccc(CCC(=O)NC(C)(C)CO)cc1 (centres unmarked)" recorded_metric=pIC50 reported_result=7.10
compound="CC(C)c1[nH]nc(OC2OC(CO)C(F)C(O)C2O)c1Cc1ccc(CCCC(=O)N2CCN(C)CC2)cc1 (centres unmarked)" recorded_metric=pIC50 reported_result=6.86
compound="CCCNC(=O)NCCCc1ccc(Cc2c(OC3OC(CO)C(F)C(O)C3O)n[nH]c2C)cc1 (centres unmarked)" recorded_metric=pIC50 reported_result=6.60
compound="CC(C)c1[nH]nc(OC2OC(CO)C(F)C(O)C2O)c1Cc1ccc(CCCC(=O)N[C@@H]2O[C@H](CO)[C@@H](O)[C@H](O)[C@H]2O)cc1 (some centres unmarked)" recorded_metric=pIC50 reported_result=6.68
